FYI, the data here is from patent US20210363269A1.

- SUBJECT OF TEST: T1, mouse 129 SIRP-α D1 domain (mouse (129 strain), UniProt P97797 32-150)
- T1 construct: also called m129
- T1 chain: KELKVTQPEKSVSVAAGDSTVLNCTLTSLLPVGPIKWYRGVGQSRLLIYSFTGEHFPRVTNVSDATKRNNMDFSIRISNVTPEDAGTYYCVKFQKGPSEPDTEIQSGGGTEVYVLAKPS
- PROCEDURE SUMMARY: SPR, ProteOn, antibody on chip
Kindly supply the reported pKd values for the records listed here.
Lab note: report pKd as minus log10 of the concentration in molar units, number only.

The binder AB25c (antibody, mouse IgG2a, V domains shown, Full-length mouse IgG2a) VH: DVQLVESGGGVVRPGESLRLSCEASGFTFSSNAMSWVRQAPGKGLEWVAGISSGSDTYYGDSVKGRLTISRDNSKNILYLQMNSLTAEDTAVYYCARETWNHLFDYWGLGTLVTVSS VL: ALTQPASVSANPGETVEITCSGGSYSSYYYAWYQQKSPGSAPVTLIYSDDKRPSNIPSRFSGSASGSTATLTITGVRAEDEAVYFCGGYDQSSYTNPFGAGTTLTVL showed pKd equal to 10.23

The binder AB3c (antibody, mouse IgG2a, V domains shown, Full-length mouse IgG2a) VH: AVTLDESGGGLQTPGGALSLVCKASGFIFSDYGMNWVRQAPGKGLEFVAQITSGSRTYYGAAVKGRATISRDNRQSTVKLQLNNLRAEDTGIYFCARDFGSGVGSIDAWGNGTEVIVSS VL: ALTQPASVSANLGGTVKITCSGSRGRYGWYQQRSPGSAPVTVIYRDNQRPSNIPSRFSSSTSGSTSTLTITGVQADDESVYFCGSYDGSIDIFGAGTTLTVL showed pKd equal to 7.66

The binder AB66c (antibody, mouse IgG2a, V domains shown, Full-length mouse IgG2a) VH: DVQLVESGGGVVRPGESLRLSCAASGFTFSSYAMSWVRQAPGKGLEWLAGISAGGSDTYYIDSVKGRFTISRDNPKNSLYLQMSSLTAEDTAVYYCARETWNHLFDYWGLGTLVTVSS VL: ALTQPASVSANPGETVKITCSGGDYYSTYYAWYQQKSPGSAPVTVIHSDDKRPSDIPSRFSGSASGSAATLIITGVRVEDEAVYYCGGYDGRTYINTFGAGTTLTVL showed pKd equal to 10.02

The binder AB21c (antibody, mouse IgG2a, V domains shown, Full-length mouse IgG2a) VH: DVQLVESGGGVVRPGESLRLSCAASGFTFSSNAMSWVRQAPGKGLEWLAGISAGGSDTYYPASVKGRFTISRDNSKNTLYLQMNTLTAEDTAVYYCARETWNHLFDYWGLGTLVTVSS VL: ALTQPASVSANPGETVKIACSGGDYYSYYYGWYQQKAPGSALVTVIYSDDKRPSDIPSRFSGSASGSTATLTITGVRAEDEAVYYCGGYDYSTYANAFGAGTTLTVL showed pKd equal to 10.23

The binder AB27c (antibody, mouse IgG2a, V domains shown, Full-length mouse IgG2a) VH: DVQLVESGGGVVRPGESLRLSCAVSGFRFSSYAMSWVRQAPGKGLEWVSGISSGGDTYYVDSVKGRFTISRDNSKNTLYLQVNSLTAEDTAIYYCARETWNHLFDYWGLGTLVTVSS VL: ALTQPASVSADLGETVKITCSGGDSSSHYYGWYQQKSPGSAPVTVIYSDDERPSDIPSRFSGSASGSTATLTITGVRVEDEAIYYCGAYDGSTYANTFGAGTTLTVL showed pKd equal to 9.31
